- SYSTEM_NAME: mu opiate receptor (MOR) (Rattus norvegicus)
- Construct: from tissue; host or cells: striatum (membrane preparation)
- Sequence (P33535 whole entry): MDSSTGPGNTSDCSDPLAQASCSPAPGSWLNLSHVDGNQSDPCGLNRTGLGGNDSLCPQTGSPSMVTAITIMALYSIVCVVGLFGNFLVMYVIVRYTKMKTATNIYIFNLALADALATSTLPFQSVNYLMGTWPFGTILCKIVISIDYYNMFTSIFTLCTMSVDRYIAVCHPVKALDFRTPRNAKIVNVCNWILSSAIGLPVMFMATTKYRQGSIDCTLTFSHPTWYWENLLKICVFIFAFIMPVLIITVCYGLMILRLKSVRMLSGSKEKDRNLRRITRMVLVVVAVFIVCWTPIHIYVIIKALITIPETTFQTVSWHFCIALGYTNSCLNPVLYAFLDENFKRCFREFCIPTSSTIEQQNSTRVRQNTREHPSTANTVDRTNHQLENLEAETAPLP
- MEASUREMENT_NOTES: MOR agonist activity using [35S]GTPgS binding assay in striatal membranes
- Type: biochemical
- CONDITIONS: 1 μM compound as agonist; Series C-1 table
Below: a set of entries, each annotated with reported MOR agonist activity ([35S]GTPgS binding to Gao).
Provide only the numeric value, understood in %.

Known MOR agonist activity ([35S]GTPgS binding to Gao) results, listed for orientation:
Exercise: What value of measured MOR agonist activity ([35S]GTPgS binding to Gao) is listed for CC(=O)c1ccc(S(=O)(=O)N2CCC3(CC2)OCCN3S(=O)(=O)c2ccc(C(C)=O)cc2)cc1 [Compound C0011] ?
Solution: 305.0

Exercise: What value of measured MOR agonist activity ([35S]GTPgS binding to Gao) is listed for O=S(=O)(c1ccc(Br)cc1C(F)(F)F)N1CCC2(CC1)OCCN2S(=O)(=O)c1ccc(Br)cc1C(F)(F)F [Compound C0068] ?
Solution: 263.1

Moving on to another compound below.
Exercise: What value of measured MOR agonist activity ([35S]GTPgS binding to Gao) is listed for O=C(OCc1ccccc1)c1ccc(S(=O)(=O)N2CCC3(CC2)OCCN3S(=O)(=O)c2ccc(C(=O)OCc3ccccc3)cc2)cc1 [Compound C0042] ?
Solution: 260.9

Where do these numbers come from? They come from patent US20220233512A1.
